Target: UniProt P0DMS8
Sequence (whole entry): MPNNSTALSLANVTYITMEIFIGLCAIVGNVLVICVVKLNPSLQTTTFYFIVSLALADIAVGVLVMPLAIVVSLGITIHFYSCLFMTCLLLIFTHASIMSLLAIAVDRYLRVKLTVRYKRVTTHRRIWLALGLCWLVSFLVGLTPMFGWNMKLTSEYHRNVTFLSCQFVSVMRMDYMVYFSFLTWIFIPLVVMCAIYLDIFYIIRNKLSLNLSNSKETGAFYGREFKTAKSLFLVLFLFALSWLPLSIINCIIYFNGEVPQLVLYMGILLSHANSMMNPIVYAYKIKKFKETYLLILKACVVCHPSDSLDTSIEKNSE
Assay: Orthosteric antagonist activity at human A3 adenosine receptor transfected in HEK293 cell membranes assessed as inhibition of [125I]I-AB-MECA binding at equilibrium at 10 uM measured for 18 hrs by gamma counter method
Conditions: Membrane, filed as antagonist
Activity calls are given as the source filed them. The calls are words filed in the database; no cut-off is given here.
PROPERTY: Activity

>>> measured_result("CCCC(CCC)c1nc2c(Oc3ccccc3)nc3ccccc3c2[nH]1")
"Active"
>>> measured_result("Clc1ccc(Oc2nc3ccccc3c3[nH]c(C4CCCCC4)nc23)cc1Cl")
"Active"
>>> measured_result("CCCC(CCC)c1nc2c(Nc3ccc(I)cc3)nc3ccccc3c2n1Cc1ccccc1")
"Active"
>>> measured_result("Clc1ccc(Sc2nc3ccccc3c3[nH]c(C4CCCCC4)nc23)cc1Cl")
"Active"
>>> measured_result("CCCC(CCC)c1nc2c(Sc3ccc(Cl)c(Cl)c3)nc3ccccc3c2[nH]1")
"Active"
>>> measured_result("CCCC(CCC)c1nc2c(Oc3ccc(Cl)c(Cl)c3)nc3ccccc3c2[nH]1")
"Active"
>>> measured_result("OCCn1c(C2CCCCC2)nc2c(Nc3ccc(Cl)c(Cl)c3)nc3ccccc3c21")
"Active"
>>> measured_result("CCCC(CCC)c1nc2c(Nc3ccc(/C=C/C(=O)NCCCCCCCCN)cc3)nc3ccccc3c2[nH]1")
"Active"
>>> measured_result("Clc1ccc(Nc2nc3ccccc3c3nc(C4CCCCC4)oc23)cc1Cl")
"Active"
